- studySystem: T1, IIB-Fc:IIB-Fc homodimer (human ActRIIB ECD fused to human IgG1 Fc) (human, UniProt Q13705-1 19-134)
- T1 construct: activin receptor type IIB (ActRIIB) extracellular domain, human, aa 19-134 of NP_001097.2; Chains linked by disulfide bonds between the Fc domains; a form with murine IgG2a Fc was used only in mice; also called ActRIIB-Fc homodimer; ActRIIB-Fc; not shown: Fc (human IgG1), C-terminal, kept
- T1 sequence (Q13705 19-134): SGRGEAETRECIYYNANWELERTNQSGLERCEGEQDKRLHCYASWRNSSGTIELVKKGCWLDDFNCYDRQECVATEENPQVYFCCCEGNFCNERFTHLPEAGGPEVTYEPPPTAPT
- protocolDescription: SPR; Biacore 8K, 37 °C; Fc-fusion receptor dimers captured by anti-human Fc antibody on a CM5 chip (100-150 RU); ligands injected in two-fold dilution series (300 s association, 600 s dissociation); HBS-EP+ supplemented with 350 mM NaCl and 0.5 mg/mL BSA; 1:1 Langmuir model with a term for mass transport
- conditionContext: both partners purified
assayReadout: koff

BMP10 (ligand, human, UniProt O95393 317-424, looked up, source: bought: R&D Systems) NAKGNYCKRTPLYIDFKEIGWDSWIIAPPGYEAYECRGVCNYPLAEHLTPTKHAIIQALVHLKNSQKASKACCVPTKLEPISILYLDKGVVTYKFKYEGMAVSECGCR :: 0.000121 s⁻¹

**Query** Look at this binder and give its reported koff. BMP9 (ligand, human, UniProt Q9UK05 320-429, looked up, source: generated in house) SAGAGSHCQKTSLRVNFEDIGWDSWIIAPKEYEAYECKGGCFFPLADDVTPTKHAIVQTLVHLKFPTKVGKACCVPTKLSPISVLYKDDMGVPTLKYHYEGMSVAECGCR
**Result** 0.0011 s⁻¹

**Query** Can you check activin A (ligand, human, UniProt P08476 311-426, looked up, source: generated in house) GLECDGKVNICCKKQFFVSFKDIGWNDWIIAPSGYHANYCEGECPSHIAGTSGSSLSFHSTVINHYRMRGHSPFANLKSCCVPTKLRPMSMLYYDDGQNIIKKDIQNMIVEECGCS next?
**Result** 8.45e-05 s⁻¹
